Where do the numbers come from? From the kinase profiling compilation of Christmann-Franck et al. (2016).

# residual activity per entry
molecular target: ZAP70 (human) (UniProt P43403); assay: radiometric filter-binding kinase assay; conditions: compound 10.0 µM
Sequence (P43403 whole entry, looked up): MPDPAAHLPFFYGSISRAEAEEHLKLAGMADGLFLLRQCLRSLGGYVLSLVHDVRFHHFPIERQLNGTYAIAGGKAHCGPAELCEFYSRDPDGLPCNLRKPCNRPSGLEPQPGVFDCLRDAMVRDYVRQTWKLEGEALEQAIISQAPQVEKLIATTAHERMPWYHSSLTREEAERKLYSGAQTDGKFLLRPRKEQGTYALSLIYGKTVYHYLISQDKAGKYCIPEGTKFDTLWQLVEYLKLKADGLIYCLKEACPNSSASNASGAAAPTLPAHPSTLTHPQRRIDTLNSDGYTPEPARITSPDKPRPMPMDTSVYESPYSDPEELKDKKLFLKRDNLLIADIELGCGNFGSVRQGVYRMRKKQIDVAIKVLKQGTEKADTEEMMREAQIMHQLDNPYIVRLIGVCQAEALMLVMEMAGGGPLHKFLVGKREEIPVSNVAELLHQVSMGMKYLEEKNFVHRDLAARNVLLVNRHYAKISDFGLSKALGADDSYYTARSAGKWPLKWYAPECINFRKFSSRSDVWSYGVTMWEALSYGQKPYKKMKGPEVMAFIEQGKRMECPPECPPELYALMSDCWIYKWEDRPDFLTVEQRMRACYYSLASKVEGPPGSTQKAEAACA
Response body: numeric value in %, unit text excluded.

Recorded results for 6 compounds are shown here.
{"Compound": "O=C(NOC[C@H](O)CO)c1ccc(F)c(F)c1Nc1ccc(I)cc1Cl", "System tested": "ZAP70 (human) (UniProt P43403)", "residual activity / %": 100}
{"Compound": "CCOC(=O)c1ccc(N2NC(=O)/C(=C/c3ccc([N+](=O)[O-])o3)C2=O)cc1", "System tested": "ZAP70 (human) (UniProt P43403)", "residual activity / %": 95}
{"Compound": "NC(=O)c1c(NC(=O)C2CC2)sc2c1CCCC2", "System tested": "ZAP70 (human) (UniProt P43403)", "residual activity / %": 80}
{"Compound": "NCC(=O)Nc1ccc(-n2nc(C(F)(F)F)cc2-c2ccc3c(ccc4ccccc43)c2)cc1", "System tested": "ZAP70 (human) (UniProt P43403)", "residual activity / %": 83}
{"Compound": "CCNc1nc(Nc2cc(F)c(C(=O)N3CCOCC3)cc2OC)ncc1C(F)(F)F", "System tested": "ZAP70 (human) (UniProt P43403)", "residual activity / %": 79}
{"Compound": "Nc1cccc2c1CN(C1CCC(=O)NC1=O)C2=O (configuration not stated)", "System tested": "ZAP70 (human) (UniProt P43403)", "residual activity / %": 116}

Which residual activity is reported for this compound? c1ccc2c(-c3cnn4cc(-c5ccc(N6CCNCC6)cc5)cnc34)ccnc2c1 101

----------
target: UniProt Q13164; experiment: radiometric filter-binding kinase assay; conditions: compound 10.0 µM
Sequence (Q13164 whole entry, looked up): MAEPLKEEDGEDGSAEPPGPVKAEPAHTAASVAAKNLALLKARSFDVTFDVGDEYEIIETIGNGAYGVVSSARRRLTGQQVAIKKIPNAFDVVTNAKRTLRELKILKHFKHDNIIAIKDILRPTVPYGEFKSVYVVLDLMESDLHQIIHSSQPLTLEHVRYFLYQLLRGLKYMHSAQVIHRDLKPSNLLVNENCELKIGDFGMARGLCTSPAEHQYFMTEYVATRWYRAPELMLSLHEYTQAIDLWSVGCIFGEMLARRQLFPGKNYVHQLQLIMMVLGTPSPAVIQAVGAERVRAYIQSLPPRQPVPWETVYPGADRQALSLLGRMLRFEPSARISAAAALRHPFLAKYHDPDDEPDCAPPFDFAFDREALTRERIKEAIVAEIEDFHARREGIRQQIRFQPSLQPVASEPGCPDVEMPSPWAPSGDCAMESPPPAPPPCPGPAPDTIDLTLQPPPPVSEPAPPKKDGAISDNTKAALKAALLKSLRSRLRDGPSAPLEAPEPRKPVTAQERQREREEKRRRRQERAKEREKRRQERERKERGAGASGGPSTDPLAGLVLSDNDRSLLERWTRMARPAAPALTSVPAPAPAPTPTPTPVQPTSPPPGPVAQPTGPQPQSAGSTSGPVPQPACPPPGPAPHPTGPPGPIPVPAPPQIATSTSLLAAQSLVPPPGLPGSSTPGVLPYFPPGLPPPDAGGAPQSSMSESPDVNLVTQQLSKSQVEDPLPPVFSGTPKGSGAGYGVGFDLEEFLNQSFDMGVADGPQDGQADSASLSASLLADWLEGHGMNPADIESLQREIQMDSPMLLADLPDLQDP
Outcome: TRUE for residual activity of at least 90%; FALSE for anything lower.

Hi, just wondering whether COc1cc(C(=O)N2CCOCC2)c(F)cc1Nc1ncc(C(F)(F)F)c(NC2CC2)n1 shows residual activity of 90% or higher. FALSE

Quick check, residual activity >= 90%? CCn1c(-c2nonc2N)nc2cncc(CNC3CCNCC3)c21 FALSE

Does residual activity meet or surpass 90% for CCNc1nc(Nc2cc(F)c(C(=O)N3CCOCC3)cc2OC)ncc1C(F)(F)F ? FALSE

residual activity >= 90% for Nc1cccc2c1CN(C1CCC(=O)NC1=O)C2=O (stereo unspecified) ? TRUE

----------
system: RPS6KB1 (human), P23443 [T412E]; experiment: radiometric filter-binding kinase assay; conditions: compound 1.0 µM
Sequence (P23443 whole entry T412E, looked up): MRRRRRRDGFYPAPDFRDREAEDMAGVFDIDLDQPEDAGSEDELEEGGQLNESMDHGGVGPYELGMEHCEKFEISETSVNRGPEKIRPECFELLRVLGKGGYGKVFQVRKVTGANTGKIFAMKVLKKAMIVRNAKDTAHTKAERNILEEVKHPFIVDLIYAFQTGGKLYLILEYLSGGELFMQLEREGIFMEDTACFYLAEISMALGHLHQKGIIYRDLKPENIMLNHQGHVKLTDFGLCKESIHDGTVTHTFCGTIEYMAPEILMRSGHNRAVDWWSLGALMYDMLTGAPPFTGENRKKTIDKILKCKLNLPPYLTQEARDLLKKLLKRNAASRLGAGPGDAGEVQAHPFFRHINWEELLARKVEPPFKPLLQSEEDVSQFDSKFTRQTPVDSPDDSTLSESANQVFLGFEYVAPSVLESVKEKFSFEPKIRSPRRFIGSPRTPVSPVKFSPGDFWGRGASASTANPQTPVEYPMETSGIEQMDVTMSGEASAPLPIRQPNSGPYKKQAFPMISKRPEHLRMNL
Measured parameter: residual activity (%)
A number alone suffices; assume %.

Please review the entries below; each comes with its answer.
{"Molecule": "CNc1nc(-c2ccc3c(N)n[nH]c3c2)cc(N2C[C@@H](C(=O)NC3CCCCC3)CC[C@H]2C)n1", "System tested": "RPS6KB1 (human), P23443 [T412E]", "residual activity (%)": 108}
{"Molecule": "Cc1ccc(Sc2cnc(Nc3cccc(Br)n3)s2)cc1C(=O)N1CCN(C(=O)CN)CC1", "System tested": "RPS6KB1 (human), P23443 [T412E]", "residual activity (%)": 92}
{"Molecule": "NS(=O)(=O)OC[C@@H]1C[C@@H](n2ccc3c(N[C@H]4CCc5ccccc54)ncnc32)C[C@@H]1O", "System tested": "RPS6KB1 (human), P23443 [T412E]", "residual activity (%)": 94}
{"Molecule": "O=C(NCCCNc1nc(Nc2cccc(CN3CCOCC3)c2)ncc1C1CC1)C1CCC1", "System tested": "RPS6KB1 (human), P23443 [T412E]", "residual activity (%)": 101}
{"Molecule": "COc1cc(O)c2c(c1)[C@H]1OC1C[C@H](O)[C@H](O)C(=O)/C=C\\C[C@H](C)OC2=O (stereo partly specified)", "System tested": "RPS6KB1 (human), P23443 [T412E]", "residual activity (%)": 106}
{"Molecule": "O=C(O)c1cc(N=Nc2ccc(S(=O)(=O)Nc3ccccn3)cc2)ccc1O", "System tested": "RPS6KB1 (human), P23443 [T412E]", "residual activity (%)": 80}
{"Molecule": "O=C(N[C@@H](COc1ccc2[nH]c(=O)[nH]c2c1)c1ccccc1)c1cccn(Cc2ccc(F)c(F)c2)c1=O", "System tested": "RPS6KB1 (human), P23443 [T412E]", "residual activity (%)": 97}
{"Molecule": "Oc1ccc(/C=C/c2cc(O)cc(O)c2)cc1", "System tested": "RPS6KB1 (human), P23443 [T412E]", "residual activity (%)": 93}
{"Molecule": "COc1cc(O)c2c(c1)/C=C/C[C@H](O)[C@H](O)C(=O)/C=C\\C[C@H](C)OC2=O", "System tested": "RPS6KB1 (human), P23443 [T412E]", "residual activity (%)": 82}
{"Molecule": "Cc1nc(-c2ccc(OCC(C)C)c(C#N)c2)sc1C(=O)O", "System tested": "RPS6KB1 (human), P23443 [T412E]", "residual activity (%)": 99}

Kindly consider the entry below.
Notebook: pull reported residual activity for RPS6KB1 (human), P23443 [T412E], entry FC(F)(F)c1ccc(-c2ccc(Oc3cncc4sc(-c5nn[nH]n5)cc34)cc2)cc1 98

----------
Recorded residual activity values for a group of compounds are listed next.
molecular target: MST4 (human); assay: radiometric filter-binding kinase assay; conditions: compound 1.0 µM
State the answer as a number, implicitly in %.

Look at this compound and give its reported residual activity. NC1(c2ccc(-c3nc4ccn5c(=O)[nH]nc5c4cc3-c3ccccc3)cc2)CCC1 103

What value of measured residual activity is listed for COc1cc(O)c2c(c1)[C@H]1OC1C[C@H](O)[C@H](O)C(=O)/C=C\C[C@H](C)OC2=O (stereo not given in full) ? 86

Value lookup for residual activity; key = CCc1cncnc1N1CCN(Cc2nc3cc(C(F)(F)F)ccc3[nH]2)CC1 77

What does the record list as residual activity for NC(=O)Nc1ccc2c(c1)/C(=C/c1cc(-c3cccnc3)c[nH]1)C(=O)N2 ? 18

# input compound: O=C1Nc2nc(-c3c(O)cccc3OCC3CC3)cc(C3CCCNC3)c2CO1 (stereo not given) ; wanted: its residual activity 105

----------
target: MAPK3 (human); assay: radiometric filter-binding kinase assay; conditions: compound 1.0 µM
Label 1 when residual activity >= 90%; otherwise -1.

Look over these answered cases.
{"Compound": "COc1cc(C(=O)N2CCOCC2)c(F)cc1Nc1ncc(C(F)(F)F)c(NC2CC2)n1", "Label": -1}
{"Compound": "NC1(c2ccc(-c3nc4ccn5c(=O)[nH]nc5c4cc3-c3ccccc3)cc2)CCC1", "Label": -1}

Determine whether measured residual activity meets or exceeds 90% for Cn1c(=O)c2c(ncn2C)n(C)c1=O 1

Does residual activity meet or surpass 90% for COc1cc(O)c2c(c1)[C@H]1OC1C[C@H](O)[C@H](O)C(=O)/C=C\C[C@H](C)OC2=O (stereo not given in full) ? -1

Exam item: decide whether the reported residual activity for COc1ccc(-n2ncc3cnc(Nc4cc(OC)c(OC)c(OCCCN5CCN(C)CC5)c4)nc32)cc1 is at least 90%. -1

----------
target: SRPK1 (human); test: radiometric filter-binding kinase assay; settings: compound 0.01 µM
Below is a list of entries, each paired with its recorded residual activity value.
Output spec: scalar in %, unitless text.

Observe how each entry below is paired with its result.
{"Molecule": "COc1cc(O)c2c(c1)[C@H]1OC1C[C@H](O)[C@H](O)C(=O)/C=C\\C[C@H](C)OC2=O (stereo partly specified)", "Result": 111}
{"Molecule": "CNc1nc(-c2ccc3c(N)n[nH]c3c2)cc(N2C[C@@H](C(=O)NC3CCCCC3)CC[C@H]2C)n1", "Result": 106}
{"Molecule": "O=C(Nc1nc2cc(C(F)(F)F)cc(NC3CC3)n2n1)c1cccnc1", "Result": 100}
{"Molecule": "C/C(=C1/C(=O)Nc2ccc(NC(N)=O)cc21)c1ccc[nH]1", "Result": 96}
{"Molecule": "COc1ccc(N(C(=O)Nc2c(C)cccc2C)c2cc(Nc3ccc(N4CCN(C)CC4)cc3)ncn2)c(OC)c1", "Result": 96}

Would you kindly look at the next entry?
Any idea what residual activity was measured for CNC(=O)C1[C@H]2O[C@@](C)([C@@H]1N)n1c3ccccc3c3c4c(c5c6ccccc6n2c5c31)C(=O)NC4 (stereo partly specified) ? 89

----------
Items are presented alongside their recorded residual activity.
molecular target: NEK6 (human); test: radiometric filter-binding kinase assay; conditions: compound 1.0 µM
Please give a number only; it is taken to be in %.

Solved entries (count: 5):
{"Compound": "O=C(O)c1cc(N=Nc2ccc(S(=O)(=O)Nc3ccccn3)cc2)ccc1O", "System tested": "NEK6 (human)", "residual activity / %": 98}
{"Compound": "CN(C)C/C=C/C(=O)Nc1cccc(C(=O)Nc2ccc(Nc3nccc(-c4cccnc4)n3)cc2)c1", "System tested": "NEK6 (human)", "residual activity / %": 96}
{"Compound": "COc1ccc(-n2ncc3cnc(Nc4cc(OC)c(OC)c(OCCCN5CCN(C)CC5)c4)nc32)cc1", "System tested": "NEK6 (human)", "residual activity / %": 59}
{"Compound": "Oc1ccc(/C=C/c2cc(O)cc(O)c2)cc1", "System tested": "NEK6 (human)", "residual activity / %": 104}
{"Compound": "O=C1Nc2nc(-c3c(O)cccc3OCC3CC3)cc(C3CCCNC3)c2CO1 (centres undefined)", "System tested": "NEK6 (human)", "residual activity / %": 98}

Proceeding to the next compound to report its residual activity.
Given the entry COc1cc(O)c2c(c1)[C@H]1OC1C[C@H](O)[C@H](O)C(=O)/C=C\C[C@H](C)OC2=O (some centres undefined) , report its measured residual activity. 98
